Test system: fibroblast
Test: Cytotoxicity on human cells, automated nuclei counting: fibroblast
Type: cell-based
Conditions: exposed 24 h to 48 h, 0.1 to 25 μM
Threshold 3 µM: IC50 strictly smaller gives T, otherwise F.

| MOLECULE | LABEL_CLASS |
| --- | --- |
| O=C(Nc1cccc(Br)n1)Nc1cccc2c1C1CCCCN1C2=O (stereo not shown) [Compound 19] | F |
| O=C1c2cccc(NC(=S)Nc3ccc(Br)cn3)c2C2CCCCN12 (stereo not shown) [Compound 66] | F |
| COc1ccc(NC(=O)Nc2cccc3c2C2CCCCN2C3=O)cn1 (stereo not shown) [Compound 96] | T |
| COc1cc(NC(=O)Nc2cccc3c2C2CC4(CCN2C3=O)OCCO4)nc2ccccc12 (stereo not shown) [Compound 48] | F |
| O=C(Nc1cccc(F)n1)Nc1cccc2c1C1CCCCN1C2=O (stereo not shown) [Compound 23] | T |
| O=C(Nc1cc(-c2ccccc2)on1)Nc1cccc2c1C1CCCCN1C2=O (stereo not shown) [Compound 25] | T |
| COc1cc(NC(=O)Nc2cccc3c2C2CC4(CCN2C3=O)SCCS4)nc2ccccc12 (stereo not shown) [Compound 49] | F |
| O=C(Nc1cnccn1)Nc1cccc2c1C1CC3(CCN1C2=O)OCCO3 (stereo not shown) [Compound 29] | F |
| O=C(Nc1cnccn1)Nc1cccc2c1C1CCCCN1C2=O (stereo not shown) [Compound 38] | T |
| O=C(Nc1cscn1)Nc1cccc2c1C1CCCCN1C2=O (stereo not shown) [Compound 26] | F |
| O=C(Nc1nc2ccccc2s1)Nc1cccc2c1C1CCCCN1C2=O (stereo not shown) [Compound 34] | T |
| O=C(Nc1cccc(Br)n1)Nc1cccc2c1C1CC3(CCN1C2=O)OCCO3 (stereo not shown) [Compound 47] | F |
| O=C(Nc1cnccn1)Nc1cccc2c1C1CC3(CCN1C2=O)SCCS3 (stereo not shown) [Compound 17] | T |
| COc1cc(NC(=O)Nc2cccc3c2C2CC(O)CCN2C3=O)nc2ccccc12 (stereo not shown) [Compound 109] | F |
| Cc1nc(NC(=O)Nc2cccc3c2C2CCCCN2C3=O)cs1 (stereo not shown) [Compound 35] | T |
| O=C(Nc1cccc2c1C1CCCCN1C2=O)Nc1ncccc1Br (stereo not shown) [Compound 75] | T |

Numbers sourced from patent US20120095022A1.
